target_or_system: anti-H3K9me3 antibody ab8898
assay_info: peptide microarray binding signal (635 nm), min-max normalized on array (fraction of array maximum); higher = stronger binding
assay_setup: peptide region: Unmod H3 variant; binder concentration: 1:10,000 dilution
We begin with a simple list: items and their reported peptide microarray binding signal.
Write the value as a bare number.

Here is how some binders turned out for peptide microarray binding signal.
binder: ATKAARKSAPSTG [Unmod H3 variant A T K A A R K S A P S T G]
val: 0.000923
//
binder: ATKAARKSAPATG [Unmod H3 variant A T K A A R K S A P A T G]
val: 0.00127
//
binder: AIHAKRVTIMPKD [Unmod H3 variant A I H A K R V T I M P K D]
val: 0.000692
//
binder: TGGKAPRKQLATK [Unmod H3 variant T G G K A P R K Q L A T K]
val: 0.000807
//
binder: ALQEACEAYLVGL [Unmod H3 variant A L Q E A C E A Y L V G L]
val: 0.000519

peptide microarray binding signal reported for this binder VGLFEDTNLCAIH [Unmod H3 variant V G L F E D T N L C A I H] : 0.000807

Data point: QDFKTDLRFQSSA [Unmod H3 variant Q D F K T D L R F Q S S A] ; peptide microarray binding signal = 0.00202

The recorded peptide microarray binding signal for VREIAQDFKTDLR [Unmod H3 variant V R E I A Q D F K T D L R] is 0.00259

RVTIMPKDIQLAR [Unmod H3 variant R V T I M P K D I Q L A R] yielded peptide microarray binding signal of 0.00375

Kindly note the recorded peptide microarray binding signal for PFQRLVREIAQDF [Unmod H3 variant P F Q R L V R E I A Q D F] , which is 0.00427

The recorded peptide microarray binding signal for RKSAPSTGGVKKP [Unmod H3 variant R K S A P S T G G V K K P] is 0.000634

The measured peptide microarray binding signal associated with TARKSTGGKAPRK [Unmod H3 variant T A R K S T G G K A P R K] reads 0.000923

Source listed as the supplement of paper PMC4022240.
